target under test: Voltage-gated inwardly rectifying potassium channel KCNH2 (Homo sapiens) (UniProt Q12809)
Sequence (Q12809 whole entry, looked up): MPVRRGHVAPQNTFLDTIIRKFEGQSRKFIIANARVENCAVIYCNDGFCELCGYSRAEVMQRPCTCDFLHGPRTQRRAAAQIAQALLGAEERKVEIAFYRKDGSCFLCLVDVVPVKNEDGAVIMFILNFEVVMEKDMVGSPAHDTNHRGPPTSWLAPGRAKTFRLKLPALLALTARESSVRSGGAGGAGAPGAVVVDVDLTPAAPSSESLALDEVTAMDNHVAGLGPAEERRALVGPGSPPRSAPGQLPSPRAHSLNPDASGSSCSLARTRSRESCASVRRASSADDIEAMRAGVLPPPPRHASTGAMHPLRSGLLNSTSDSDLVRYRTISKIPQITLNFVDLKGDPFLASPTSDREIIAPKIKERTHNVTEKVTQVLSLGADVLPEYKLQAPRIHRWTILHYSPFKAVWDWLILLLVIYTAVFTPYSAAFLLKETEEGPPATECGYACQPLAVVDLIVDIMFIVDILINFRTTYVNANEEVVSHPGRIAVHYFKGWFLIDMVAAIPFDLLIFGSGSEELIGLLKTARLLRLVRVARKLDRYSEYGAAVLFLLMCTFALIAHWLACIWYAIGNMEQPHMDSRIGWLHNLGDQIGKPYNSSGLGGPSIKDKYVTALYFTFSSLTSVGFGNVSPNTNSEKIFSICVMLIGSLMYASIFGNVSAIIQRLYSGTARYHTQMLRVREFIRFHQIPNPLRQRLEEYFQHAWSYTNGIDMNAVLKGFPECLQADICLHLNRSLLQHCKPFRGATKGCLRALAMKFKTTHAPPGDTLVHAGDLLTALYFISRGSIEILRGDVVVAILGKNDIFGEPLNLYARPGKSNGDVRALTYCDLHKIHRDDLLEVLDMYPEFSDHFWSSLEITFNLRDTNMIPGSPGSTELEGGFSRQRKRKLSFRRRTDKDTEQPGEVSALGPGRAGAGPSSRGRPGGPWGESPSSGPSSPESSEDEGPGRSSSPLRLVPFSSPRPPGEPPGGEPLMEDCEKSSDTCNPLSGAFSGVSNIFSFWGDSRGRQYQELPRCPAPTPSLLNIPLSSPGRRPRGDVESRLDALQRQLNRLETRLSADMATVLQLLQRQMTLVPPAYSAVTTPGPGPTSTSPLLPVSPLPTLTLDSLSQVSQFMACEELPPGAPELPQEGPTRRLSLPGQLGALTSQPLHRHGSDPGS
test summary: Human Ether-a-go-go-Related Gene (hERG) channel small molecule antagonists: fluorescence cell-based qHTS assay (AID 1671200); note: nearly all actives have a fitted effect of over 50% in size
experimental context: hERG-U2OS cells, FluxOR thallium flux fluorescence; series mostly up to 76.8 µM
Records with an inconclusive call do not appear. Active and inactive are the calls of the source. Calls come from the whole dose curve; as a rule, active = well fitted inhibition curve with a large enough effect in the repeat runs; inconclusive = weak or mixed curves; inactive = flat fitted curve, though single readings scatter.
Permitted responses: active, inactive

Answer briefly: the call reported for C=C[Si](OCC)(OCC)OCC in this assay.
inactive

Per the assay record, what outcome was assigned to C/C(=C(\CCO)SS/C(CCO)=C(\C)N(C=O)Cc1cnc(C)nc1N)N(C=O)Cc1cnc(C)nc1N ?
inactive

Given O=C(N[C@@H](Cc1ccccc1)[C@@H](O)C(=O)N1C[C@@H](O)[C@@H](O)C1)c1cc2cc(Cl)ccc2[nH]1 , state the outcome it received in this test.
inactive

State the result this test recorded for SCCOCCOCCS .
inactive

Test call, this compound: CCN(CCCCOC(=O)c1ccc(OC)c(OC)c1)C(C)Cc1ccc(OC)cc1 (configuration not stated)
active

Which outcome was assigned to CCCCCCCCOCCCN in this test?
active

Hi, sorry to bother you, what did the test record for CCc1cnc(C(=O)O)c(C(=O)O)c1 ?
inactive

Any idea what this test logged for O=C1OC(=O)C2CC=CCC12 (configuration not stated) ?
inactive

Which outcome was entered for the compound CC/C=C/CCO in this test?
inactive

For O=S(=O)(O)c1cc(Cl)c(Cl)cc1Cl , what call appears in the results of this test?
inactive

Hi team, can someone confirm the assay call for COC(=O)/C=C/C(C)=C\C=C\C(C)=C\C=C\C=C(C)\C=C\C=C(C)\C=C\C(=O)O ?
inactive

Look up the recorded call for CCOc1cc(OCC)c(C(C)=O)cc1OCC in this test.
inactive

====

test summary: A CellTox Green Cytotoxicity Assay to monitor cytotoxicity in HEK293 cells - 16 hour (AID 1224888); note: % is set by controls: 0 for no effect and ±100 for the full control effect; nearly all actives have a fitted effect of over 35% in size
experimental context: CellTox Green fluorescence; series mostly up to 76.8 µM
Source text: National Center for Advancing Translational Sciences [NCATS] NIH Chemical Genomics Center [NCGC] U.S. Environmental Protection Agency [EPA] National Institutes of Environmental Health Sciences [NIEHS] National Toxicology Program [NTP] Cell-based models are critical for drug discovery. […] Viable cells produce no appreciable increases in fluorescence. Therefore, the fluorescence signal produced by the binding interaction with dead cell DNA is proportional to cytotoxicity. […]
Inconclusive results are not listed. The source made the active and inactive calls. Calls come from the whole dose curve; as a rule, active = well fitted activation curve with a large enough effect in the repeat runs; inconclusive = weak or mixed curves; inactive = flat fitted curve, though single readings scatter.
reported property: outcome

Record excerpt, results attached:
molecule	reported property	readout value
CCCCCCCCS	outcome	inactive
CC(=O)OCC(=O)[C@@]1(O)CC[C@H]2[C@@H]3CCC4=CC(=O)C=C[C@]4(C)[C@@]3(F)[C@@H](O)C[C@@]21C	outcome	inactive
CC(=O)Oc1cccc2c1C(=O)c1c(OC(C)=O)cc(C(=O)O)cc1C2=O	outcome	inactive
N#Cc1ccc(CC(=O)c2cccc(C(F)(F)F)c2)cc1	outcome	inactive

API: the following record is the query input.
molecule CC(C)(C(=O)O)c1ccc(C(O)CCCN2CCC(C(O)(c3ccccc3)c3ccccc3)CC2)cc1 (stereo not given) , outcome observed: inactive

====

test summary: qHTS assay to identify small molecule agonists of the estrogen receptor beta (ER-beta) signaling pathway - cell viability counter screen (AID 1259380); note: nearly all actives have a fitted effect of over 30% in size
experimental context: ER-beta-bla HEK293T viability, CellTiter-Glo luminescence, 16 h; series mostly up to 92.4 µM
Records with an inconclusive call do not appear. Active and inactive are the calls of the source. Calls follow the shape of the dose curve; as a rule, active = well fitted cell-killing curve with a large enough effect in the repeat runs; inconclusive = weak or mixed curves, or effect the other way; inactive = flat fitted curve, though single readings scatter.
Would you mind answering with one of these outcomes? active, inactive

For this compound, state the assay outcome: CC(COc1ccccc1)NC(C)C(O)c1ccc(O)cc1 (stereo unspecified)
inactive

Record lookup: outcome of this test for CCN(CC)CC(=O)OCC(=O)[C@@]1(O)CC[C@H]2[C@@H]3CCC4=CC(=O)CC[C@]4(C)[C@H]3[C@@H](O)C[C@@]21C ?
inactive

Per the assay record, what outcome was assigned to COc1ccc(CN(CCN(C)C)c2ncccn2)cc1 ?
inactive

Status in this test for CCOC(=O)CC(O)(CC(=O)OCC)C(=O)OCC ?
inactive

Hi team, can someone confirm the assay call for O=C(O)c1ccccc1-n1cc(C(=O)O)c(=O)c2cc(Nc3c(F)cc(F)cc3Cl)c(Cl)cc21 ?
inactive

Assay result, entry Nc1cccc2c(=O)[nH][nH]c(=O)c12 — outcome?
active

====

target under test: Peroxisome proliferator-activated receptor delta (Homo sapiens)
test summary: qHTS assay to identify small molecule antagonists of the peroxisome proliferator-activated receptor delta (PPARd) signaling pathway (AID 743215);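 note: cells stimulated with agonist L165041 at 300 nM final during compound exposure; % is set by controls: 0 for no effect and ±100 for the full control effect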
experimental context: HEK293H PPARd-UAS-bla, beta-lactamase FRET ratio, antagonist, 17 h; series mostly up to 62 µM
Results filed as inconclusive are left out. Calls of active or inactive are those of the source. Calls follow the shape of the dose curve; as a rule, active = well fitted inhibition curve with a large enough effect in the signal ratio in the repeat runs (not every such curve was filed as active); inconclusive = weak or mixed curves, or effect the other way; inactive = no such curve, though single readings can be large or run the other way; the % refers to the signal ratio.
reported property: ratio activity, negative = inhibition

compound	reported property	readout value
C[C@H](CN1CCCC1)C(=O)c1ccc(C(F)(F)F)cc1	ratio activity, negative = inhibition	inactive
COc1ccc(C(=O)c2ccc(C)cc2)c(O)c1	ratio activity, negative = inhibition	inactive
Cc1cc(N)n(-c2ccccc2)n1	ratio activity, negative = inhibition	inactive
CCOc1ccc(NC(C)=O)cc1N	ratio activity, negative = inhibition	inactive

Quick note, ratio activity, negative = inhibition for CCOc1cc(OCC)c(C(C)=O)cc1OCC landed at inactive

// ratio activity, negative = inhibition lookup, compound = c1ccc(-c2ccc(-c3ccccc3)cc2)cc1 , result: inactive

Record summary for O=C1c2ccccc2C(=O)c2c1ccc(O)c2O : reported ratio activity, negative = inhibition = inactive

Input Cc1c(Cl)cccc1[N+](=O)[O-] . Output ratio activity, negative = inhibition: inactive

Note to self: ratio activity, negative = inhibition recorded for CC[C@H](NC(C)C)[C@H](O)c1ccc(O)c2[nH]c(=O)ccc12 was inactive

Input COc1cc(CNC(=O)CCCC/C=C/C(C)C)ccc1O . Output ratio activity, negative = inhibition: inactive

ratio activity, negative = inhibition for O=C(O)c1c2ccccc2cc2ccccc12 is inactive

Kindly note the recorded ratio activity, negative = inhibition for CNc1ccccc1 , which is inactive

GET /value?item= CC(C)=CCC/C(C)=C/C=N/O &field=ratio activity, negative = inhibition returns inactive

The reported ratio activity, negative = inhibition of the compound CC1=C(C)C(=O)C(C(CCCCCC(=O)O)c2ccccc2)=C(C)C1=O (stereo not given) was inactive

Consider CC(C(=O)O)c1ccc(/C=C2\CCCCC2=O)cc1 (stereo not given) . Its measured ratio activity, negative = inhibition is inactive

Looking up Cc1c(-c2cccnc2)c2ccccc2n1CCCCC(=O)O , I found its ratio activity, negative = inhibition recorded as inactive

The value of ratio activity, negative = inhibition measured for the compound CC(C)C/C=C(\C=O)c1ccccc1 turned out to be inactive

====

test summary: qHTS RealTime-Glo MT Cell Viability Assay in HEK293 cells - 24 hour (AID 1224886); note: nearly all actives have a fitted effect of over 50% in size
experimental context: RealTime-Glo luminescence; series mostly up to 76.8 µM
Results filed as inconclusive are left out. Calls of active or inactive are those of the source. The call rests on the fitted dose curve; in most records, active means well fitted cell-killing curve with a large enough effect in the repeat runs; inconclusive means weak or mixed curves, or effect the other way; inactive means flat fitted curve, though single readings scatter.
Select the matching outcome among 1 for active, 0 for inactive

What did this assay record as the result for O=c1[nH][nH]c2ccccc12 ?
0

Test call for this compound, please: COC(=O)/C=C/C(C)=C\C=C\C(C)=C\C=C\C=C(C)\C=C\C=C(C)\C=C\C(=O)O
0

What classification did CC(C)Oc1ccccc1O end up with in this test?
0

What is the recorded call for this compound in the test? CCCCCCCCCC(C)C=O (centres undefined)
0

Returns: the outcome recorded for CC1(C)CC(O)CC(C)(C)N1[O] in this assay.
0

Record request — test call for CCCc1ccc(OC)cc1
0

Field: outcome | Entry: COc1ccc(/C(C)=C/C(=O)O)c(OC)c1
0

Write down the call the test reported for this compound. Item: COC(=O)Cc1cccc2ccccc12
0

Hi, sorry to bother you, what did the test record for CCOc1cc(OCC)c(C(C)=O)cc1OCC ?
1

Check the results log: what was the call for COc1cc(CNC(=O)CCCC/C=C/C(C)C)ccc1O ?
1

For this compound, state the assay outcome: CCCCC(CC)COCCC#N (centres undefined)
0

Please share the test call associated with CC[C@H](NC(C)C)[C@H](O)c1ccc(O)c2[nH]c(=O)ccc12 .
0

Fill in: this test's call for Cc1ccc(NC=O)c(C)c1 is ___
0

Please indicate how the test categorized NC(=O)c1ccccc1 .
0

State the result this test recorded for CCCC1CCOC(C)S1 (centres undefined) .
0

For Cc1ccc(S(=O)(=O)NC(=O)NC2CCCC2)cc1 , which call appears in the assay record?
0

Fill in: this test's call for CC(COc1ccccc1)NC(C)C(O)c1ccc(O)cc1 (centres undefined) is ___
0

Hi, sorry to bother you, what did the test record for C=CC(=O)OCCCCCCCCCC ?
0

Give the logged outcome of this assay for the following compound: Cc1c(Cl)cccc1Nc1ccccc1C(=O)O
0

Record lookup: outcome of this test for CO[C@@H]1COCC[C@@H]1N[C@@H]1CC[C@@](C(=O)N2CCc3ncc(C(F)(F)F)cc3C2)(C(C)C)C1 ?
1

What did the test return for CCCOC(C)=O ?
0

Returns: the outcome recorded for CCC(=O)O[C@@H]1C[C@H]2CC[C@]1(C)C2(C)C in this assay.
0

Short answer needed: outcome of this test for COc1cc(C)c(Cc2cnc(N)nc2N)cc1OC ?
0

Status in this test for CC(C)NC(=O)c1ccccc1N ?
0

For C[Si](C)(C)O[Si](C)(C)O[Si](C)(C)C , what call appears in the results of this test?
0

Tell me the assay call for CCCCCC1CCC(=O)O1 (centres undefined) please.
0

Any idea what this test logged for CCCCCCC/C=C/C=O ?
0

Answer briefly: the call reported for CC(=O)CC/C=C(\C)CC/C=C(\C)CC/C=C(\C)CCC=C(C)C in this assay.
0

# fetch the recorded call for CC(C)CCCCCOC(=O)CS here
0
